System: CH1/DDP
Test: Cytotoxicity, adherent cells, 14C-thymidine incorporation (cell proliferation)
Type: cell-based
Conditions: CH1/DDP cisplatin-resistant human ovarian cancer, 96 h treatment
Readings of IC50 for the listed compounds
Answer format: numeric, nM implied, no suffix.

-- ask Using the record for Cn1c(=O)c2c(n(C)c1=O)n(C)[c](=[Pt-]([I])([I])[NH2+]C1CCCCC1)n2C , report its IC50.
-- reply 2100

-- ask Using the record for O=C1[O][Pt]2([NH][C@@H]3CCCC[C@H]3[NH]2)[O]C1=O [Oxaliplatin, oxaliplatin, reference compound] , report its IC50.
-- reply 6200

-- ask Using the record for Cn1ccn(Cc2ccccc2)[c]1=[Pt-]([I])([I])[NH2+]C1CCCCC1 , report its IC50.
-- reply 2400

-- ask Using the record for Cn1ccn(CC2CCCCC2)[c]1=[Pt-]([I])([I])[NH2+]C1CCCCC1 , report its IC50.
-- reply 2000

-- ask Using the record for Cn1[c](=[Pt-]([I])([I])[NH2+]C2CC3CCC2C3)n(C)c2ccccc21 (racemic) , report its IC50.
-- reply 2400
